Where these numbers come from: paper PMC12319226

# TGT: T1, fHbp mutant 0015 (Neisseria meningitidis, fHbp v1.1 mutant, point mutant)
# T1 chain: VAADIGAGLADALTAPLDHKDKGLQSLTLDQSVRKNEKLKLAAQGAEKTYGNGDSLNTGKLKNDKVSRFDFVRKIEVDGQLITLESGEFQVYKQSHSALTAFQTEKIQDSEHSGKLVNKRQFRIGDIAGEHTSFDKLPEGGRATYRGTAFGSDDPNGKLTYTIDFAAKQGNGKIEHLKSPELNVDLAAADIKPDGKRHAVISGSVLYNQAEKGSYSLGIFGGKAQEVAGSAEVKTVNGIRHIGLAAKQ
# TEST METHOD NOTES: BLI
# PARTICULARS: both partners purified
REPORTED PROPERTY: pKd
On this scale, pKd is minus log10 of a concentration expressed in M (mol/L).

Sample records with pKd:
| BINDER | VALUE REPORTED |
| --- | --- |
| mAb 4B3 (human) (antibody, V domains shown, also called 4B3-2; source: Expi293, purified (MabSelect SuRe, SEC); copies: 2 + 2) VH: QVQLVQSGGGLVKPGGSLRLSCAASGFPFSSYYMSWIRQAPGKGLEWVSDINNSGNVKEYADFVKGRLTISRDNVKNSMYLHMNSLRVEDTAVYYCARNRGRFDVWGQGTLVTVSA VL: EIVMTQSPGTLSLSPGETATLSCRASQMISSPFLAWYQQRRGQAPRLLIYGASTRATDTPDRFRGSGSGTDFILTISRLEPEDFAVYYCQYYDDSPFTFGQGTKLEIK | 8.45 |
| mAb 1E6 (human) (antibody, V domains shown, source: Expi293, purified (MabSelect SuRe, SEC); copies: 2 + 2) VH: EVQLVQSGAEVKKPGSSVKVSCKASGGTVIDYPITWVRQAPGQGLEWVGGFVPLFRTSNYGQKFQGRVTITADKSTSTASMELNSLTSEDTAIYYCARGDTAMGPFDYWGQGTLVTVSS VL: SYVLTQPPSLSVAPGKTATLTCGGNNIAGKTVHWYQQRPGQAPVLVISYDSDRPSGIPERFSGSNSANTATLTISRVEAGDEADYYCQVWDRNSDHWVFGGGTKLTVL | 8.85 |

# ---- query binder ----
In: Which pKd value belongs to mAb JAR5 (mouse) (antibody, V domains shown, source: Expi293, purified (MabSelect SuRe, SEC); copies: 2 + 2) VH: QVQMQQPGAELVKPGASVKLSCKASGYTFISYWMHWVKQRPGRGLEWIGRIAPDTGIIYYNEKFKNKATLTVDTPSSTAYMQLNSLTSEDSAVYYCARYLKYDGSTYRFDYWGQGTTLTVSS VL: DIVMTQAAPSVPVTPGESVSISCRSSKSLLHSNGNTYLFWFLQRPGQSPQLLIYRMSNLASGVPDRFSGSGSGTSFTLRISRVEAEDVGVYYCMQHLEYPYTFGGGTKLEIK ?
Out: 9.68
